test system: HOP-92 NSCLC; experiment: NCI-60 one-dose screen, 48 h; conditions: 10 µM unless noted
About 83,000 compounds went through this panel and 20% of them were active in at least one assay; those are over-represented in the sample as a whole. Active and inactive are the calls of the source. How the source made its calls: active means growth percent below 10; inactive means the rest.
Your answer must be one of the following: T = active, F = inactive

C/C(=C(/C)C1CC1CCNC1CCC(NC(=O)OC(C)(C)C)CC1)c1ccccc1 (centres undefined): F
COc1cc(OC)cc(-c2cc(-c3c[nH]c4ccccc34)nc(-c3c[nH]c4ccccc34)c2C#N)c1: F
O=C(Nc1cccc(Cl)c1)Nc1nc2cc([N+](=O)[O-])ccc2o1: T
CN1CCN(c2ccc(Nc3nc(NCCCNS(=O)(=O)c4ccc(C(F)(F)F)cc4)c4sccc4n3)cc2)CC1: T
CN1CCN(CCNc2nc(-c3cccc(NS(=O)(=O)c4cccc5c(N(C)C)cccc45)c3)cs2)CC1: F

Q) Which outcome was assigned to O=C1[C@@H]2Cc3c([nH]c4ccccc34)[C@H](c3ccc(Cl)cc3)N2C(=O)CN1C1CCN(Cc2ccccc2)CC1 in this test?
A) F

Q) Which outcome was assigned to O=C(/C=C/C=C/c1csc(Br)n1)NO in this test?
A) F

Q) Which outcome was assigned to CC(C)=CCC[C@](C)(O)[C@H]1CC[C@]2(C)[C@@H]1CC[C@@H]1[C@@]3(C)CC[C@H](N)C(C)(C)[C@@H]3CC[C@]12C in this test?
A) F

Q) Which outcome was assigned to Fc1ccc(-c2cn3c(-c4c[nH]c5ccc(Br)cc45)csc3n2)cc1 in this test?
A) F
